What IC50 was measured for each of the following?
TEST SYSTEM: TNF-α converting enzyme (TACE) (Homo sapiens, UniProt P78536)
Sequence (P78536 215-824): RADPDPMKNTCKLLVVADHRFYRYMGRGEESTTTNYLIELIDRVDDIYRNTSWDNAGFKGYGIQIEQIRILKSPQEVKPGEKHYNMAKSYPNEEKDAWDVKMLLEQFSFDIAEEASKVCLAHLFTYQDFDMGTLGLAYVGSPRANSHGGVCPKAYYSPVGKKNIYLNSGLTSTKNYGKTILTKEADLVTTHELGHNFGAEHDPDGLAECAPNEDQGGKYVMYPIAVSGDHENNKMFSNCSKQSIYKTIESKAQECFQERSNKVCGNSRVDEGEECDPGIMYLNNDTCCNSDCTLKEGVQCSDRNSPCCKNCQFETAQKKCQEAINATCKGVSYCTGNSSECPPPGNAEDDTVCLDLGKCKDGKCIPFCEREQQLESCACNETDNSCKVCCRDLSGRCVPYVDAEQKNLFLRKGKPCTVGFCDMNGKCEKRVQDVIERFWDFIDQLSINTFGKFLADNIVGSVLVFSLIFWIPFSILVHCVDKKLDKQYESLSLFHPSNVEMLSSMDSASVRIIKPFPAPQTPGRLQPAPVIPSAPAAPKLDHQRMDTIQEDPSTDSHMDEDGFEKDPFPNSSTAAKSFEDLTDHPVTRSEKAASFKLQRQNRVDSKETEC
PROTOCOL: Test procedure for measuring TACE inhibition (fluorescent peptidyl substrate)
Format: biochemical
STUDY CONDITIONS: second table; IC50 (nM) per footnote a
Give the number; nM is assumed, so skip it.

Dear colleague, please send me the reported IC50 for CC#CCOc1ccc(S(=O)(=O)C(C(=O)NO)c2ccc(OCC)cc2)cc1 (centres unmarked) [Example 102] when you can.
82

Please list IC50 recorded for the compound CC#CCOc1ccc(S(=O)(=O)C(C(=O)NO)C(C)C)cc1 (centres unmarked) [Example 110]
17

Tell us which IC50 value is on record for CC#CCOc1ccc(SC(C(=O)NO)c2cccc(Br)c2)cc1 (centres unmarked) [Example 103]
113

Read the entry CC#CCOc1ccc(S(=O)(=O)C(C(=O)NO)c2ccc(OC)cc2)cc1 (centres unmarked) [Example 79] and write its reported IC50.
48.1

Give the reported value of IC50 for this record: CC#CCOc1ccc(S(=O)(=O)C(C(=O)NO)c2ccc(F)cc2)cc1 (centres unmarked) [Example 97]
109

Please give the documented IC50 of CC#CCOc1ccc(S(=O)(=O)C(C(=O)NO)c2ccc(Br)cc2)cc1 (centres unmarked) [Example 88]
226

Return value of IC50 for input CC#CCOc1ccc([S+]([O-])C(C(=O)NO)C2CCCCC2)cc1 (centres unmarked) [Example 74] , no commentary.
52

Give the value of IC50 reported for the following: CC#CCOc1ccc([S+]([O-])C(C(=O)NO)c2ccc3ccccc3c2)cc1 (centres unmarked) [Example 115]
141

Kindly indicate its recorded IC50. Item: CC#CCOc1ccc(S(=O)(=O)C(C(=O)NO)c2cccc3ccccc23)cc1 (centres unmarked) [Example 94]
423

Give the value of IC50 reported for the following: CC#CCOc1ccc([S+]([O-])[C@@H](C(=O)NO)c2cccc(Br)c2)cc1 (single isomer, unassigned) [Example 104]
63

// Input: CC#CCOc1ccc(S(=O)(=O)C(C(=O)NO)C2CCN(C(=O)c3ccccc3)CC2)cc1 (centres unmarked) [Example 120] . Output its IC50 only.
88.5

Look up IC50 of CC#CCOc1ccc(S(=O)(=O)C(C(=O)NO)c2cccc(Br)c2)cc1 (centres unmarked) [Example 106] and report it.
65

Give the reported IC50 for this compound. CC#CCOc1ccc(SC(C(=O)NO)c2ccccc2OC)cc1 (centres unmarked) [Example 98]
464

Kindly indicate its recorded IC50. Item: CC#CCOc1ccc(SC(C(=O)NO)c2ccc(OCC)cc2)cc1 (centres unmarked) [Example 100]
100
